B1: KRT15 (parent)
chain: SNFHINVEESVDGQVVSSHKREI

- Variants of: B1
- procedure details: protein stability index of a GFP-peptide fusion (GPS, HEK-293T) (PSI 1-6); higher = more stable;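 note: lentivirally expressed fusions sorted by FACS into six bins by GFP to DsRed ratio, PSI derived from sequencing read proportions per bin multiplied by bin number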
- experimental conditions: c terminus: native
metric name: protein stability index
The response must contain the number and no unit.

Examples with answers:
sequence variant	protein stability index
I5W	1.63
V7G	3.08
V7Y	1.36
F3C	4.67
I23W	2.45
E9F	3.74
E22K	4.82
E9S	1.45

Report measured protein stability index; entry is `F3N`
2.78

Return value of protein stability index for input `E9G` , no commentary.
1.54

Could you please provide reported protein stability index for `R21Q` ? Thanks!
4.48

Output measured protein stability index for this item: `V15L`
1.78

Give the reported value of protein stability index for this record: `V7W`
2.64

Annotate the variant `D12M` with its measured protein stability index.
2.69

Return protein stability index for the following variant: `S17N`
1.91

Give protein stability index for the following variant: `I5L`
1.71

Identify protein stability index associated with the variant `N6L`
2.23
